Hello, the source for this data is ChEMBL document CHEMBL3638626, in case you need it.

experimental_target: Cannabinoid receptor 2 (Homo sapiens)
Sequence (P34972 whole entry): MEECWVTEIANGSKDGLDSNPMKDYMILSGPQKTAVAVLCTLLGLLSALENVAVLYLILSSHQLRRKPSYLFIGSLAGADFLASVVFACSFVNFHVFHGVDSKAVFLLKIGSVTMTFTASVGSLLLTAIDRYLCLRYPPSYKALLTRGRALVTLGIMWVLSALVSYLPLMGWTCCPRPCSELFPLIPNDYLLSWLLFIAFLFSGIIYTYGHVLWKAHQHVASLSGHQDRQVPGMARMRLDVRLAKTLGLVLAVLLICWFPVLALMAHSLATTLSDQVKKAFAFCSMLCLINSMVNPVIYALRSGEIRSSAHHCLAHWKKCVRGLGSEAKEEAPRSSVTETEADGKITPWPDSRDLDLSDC
protocol: Binding Assay: Affinity binding tests were performed according to the experimental conditions described by M. Rinaldi-Carmona in J. Pharmacol. Exp. Therap. 1998, 287, 644-650, with membranes derived either from rodent tissues or from recombinant cell lines in which the human CB2 receptors were expressed (Munro et al., Nature 1993, 365, 61-65). The affinity of the compounds is expressed in the form of the IC50 (concentration causing 50% inhibition of specific binding of the tritiated ligand used in vitro).
parameter_measured: IC50 (nM)
// note: answer is a bare numeric in nM

- smiles_entry: "COc1nc(NCCc2ccc(F)cc2)nc(-c2cccc(C(C)(C)O)c2)n1"
  IC50 / nM: 9
- smiles_entry: "COc1nc(NCCc2ccc(F)cc2)nc(-c2cc3c(Cl)cccc3[nH]2)n1"
  IC50 / nM: 7
- smiles_entry: "CCOC(=O)COc1cc(-c2nc(NCCc3ccc(F)cc3)nc(OC)n2)ccc1Cl"
  IC50 / nM: 10
- smiles_entry: "COc1nc(NCCc2ccc(F)cc2)nc(-c2cc3cc(F)ccc3[nH]2)n1"
  IC50 / nM: 12

Incoming: Give IC50; test system Cannabinoid receptor 2 (Homo sapiens); compound COc1nc(NCCc2ccc(F)cc2)nc(-c2ccc(OC)c(S(=O)(=O)NC3CC3)c2)n1
Outgoing: 12
